Molecular target: T1, macaca fascicularis (mf) PRLR.mmh (soluble monomeric monkey PRLR) (Macaca fascicularis)
T1 construct: called soluble monomeric PRLR protein
T1 chain: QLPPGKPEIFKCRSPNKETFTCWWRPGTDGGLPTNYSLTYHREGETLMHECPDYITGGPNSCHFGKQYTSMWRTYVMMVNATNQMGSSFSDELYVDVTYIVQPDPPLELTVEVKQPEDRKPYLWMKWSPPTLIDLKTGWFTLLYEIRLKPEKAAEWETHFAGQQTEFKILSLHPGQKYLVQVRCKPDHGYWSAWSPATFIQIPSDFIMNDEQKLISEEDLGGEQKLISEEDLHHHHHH
Assay: SPR Biacore, 25 C, mAb capture
Method: Measurements were conducted on a T200 Biacore instrument. Kinetic association (kₐ) and dissociation (kd) rate constants were determined by processing and fitting the data to a 1:1 binding model using Scrubber 2.0 curve fitting software.
Answer each item with its documented koff.
Report field: quantity (unit follows the number).

binder	koff
H1H6967N (antibody, human IgG1, V domains shown, Tested with human IgG1 Fc (H1H); also called H2M6967N) VH: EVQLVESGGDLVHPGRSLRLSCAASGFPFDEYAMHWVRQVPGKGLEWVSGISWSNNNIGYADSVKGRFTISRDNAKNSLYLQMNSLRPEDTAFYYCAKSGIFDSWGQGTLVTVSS VL: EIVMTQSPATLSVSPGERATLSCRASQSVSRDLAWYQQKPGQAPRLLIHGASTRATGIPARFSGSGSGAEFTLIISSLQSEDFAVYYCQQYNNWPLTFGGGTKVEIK	0.000585 s⁻¹
H1H6793P (antibody, human IgG1, V domains shown, Human IgG1 Fc (H1H)) VH: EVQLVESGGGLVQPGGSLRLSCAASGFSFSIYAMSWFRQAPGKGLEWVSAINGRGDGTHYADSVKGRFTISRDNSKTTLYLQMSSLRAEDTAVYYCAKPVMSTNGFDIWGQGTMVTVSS VL: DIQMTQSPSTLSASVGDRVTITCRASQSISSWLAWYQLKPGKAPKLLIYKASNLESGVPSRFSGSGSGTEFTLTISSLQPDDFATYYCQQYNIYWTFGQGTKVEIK	0.000393 s⁻¹

Reported koff of H1H6792P (antibody, human IgG1, V domains shown, Human IgG1 Fc (H1H)) VH: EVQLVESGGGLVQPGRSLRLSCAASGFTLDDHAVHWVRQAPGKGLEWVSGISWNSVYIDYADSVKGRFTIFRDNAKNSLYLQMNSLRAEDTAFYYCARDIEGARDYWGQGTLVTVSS VL: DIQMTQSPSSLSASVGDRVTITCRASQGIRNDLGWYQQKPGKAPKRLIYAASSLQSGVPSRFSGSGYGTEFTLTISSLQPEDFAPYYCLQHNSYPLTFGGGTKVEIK : 0.000983 s⁻¹
